assay-info: Pharmacokinetics in Sprague-Dawley rats (plasma, HPLC)
Assay type: in vivo
condition-details: SD rat, low, middle and high doses, route not given
value-type: clearance

[[record]]
molecule = "CCC(O)c1nc(C)c(C(O)CC)nc1C (stereo not shown)"
result = "~5 mL/min/kg"


====

assay-info: Pharmacokinetics in Sprague-Dawley rats (plasma, HPLC)
Assay type: in vivo
condition-details: SD rat, high dose (doses 10, 20, 40 mg·kg-1), gavage and tail vein dosing, route not given
value-type: AUC (µg·h/mL)

[[record]]
compound = "CCC(O)c1nc(C)c(C(O)CC)nc1C (stereo not shown)"
quantitative_readout = 135


====

assay-info: Pharmacokinetics in Sprague-Dawley rats (plasma, HPLC)
Format: in vivo
condition-details: 20 mg/kg, SD rat, middle dose (doses 10, 20, 40 mg·kg-1), gavage and tail vein dosing, route not given
value-type: AUC

[[record]]
molecule = "CCC(O)c1nc(C)c(C(O)CC)nc1C (stereo not shown)"
result = "70000 ng·h/mL"


====

assay-info: Pharmacokinetics in Sprague-Dawley rats (plasma, HPLC)
Type: in vivo
condition-details: 20 mg/kg, SD rat, middle dose (doses 10, 20, 40 mg·kg-1), gavage and tail vein dosing, route not given
value-type: half-life (h)

[[record]]
molecule = "CCC(O)c1nc(C)c(C(O)CC)nc1C (stereo not shown)"
value_type = "half-life"
units_label = "h"
quantitative_readout = 3.6


====

assay-info: Pharmacokinetics in Sprague-Dawley rats (plasma, HPLC)
Format: in vivo
condition-details: 10 mg/kg, SD rat, low dose (doses 10, 20, 40 mg·kg-1), gavage and tail vein dosing, route not given
value-type: AUC

[[record]]
compound = "CCC(O)c1nc(C)c(C(O)CC)nc1C (stereo not shown)"
result = "34000 ng·h/mL"


====

assay-info: Pharmacokinetics in Sprague-Dawley rats (plasma, HPLC)
Assay type: in vivo
condition-details: 10 mg/kg, SD rat, low dose (doses 10, 20, 40 mg·kg-1), gavage and tail vein dosing, route not given
value-type: half-life

[[record]]
compound = "CCC(O)c1nc(C)c(C(O)CC)nc1C (stereo not shown)"
value_type = "half-life"
result = "3.7 h"


Cited source: patent CN103301132A
